Target: porcine pancreatic elastase (PPE) (Sus scrofa, UniProt P00772)
Sequence (P00772 27-266): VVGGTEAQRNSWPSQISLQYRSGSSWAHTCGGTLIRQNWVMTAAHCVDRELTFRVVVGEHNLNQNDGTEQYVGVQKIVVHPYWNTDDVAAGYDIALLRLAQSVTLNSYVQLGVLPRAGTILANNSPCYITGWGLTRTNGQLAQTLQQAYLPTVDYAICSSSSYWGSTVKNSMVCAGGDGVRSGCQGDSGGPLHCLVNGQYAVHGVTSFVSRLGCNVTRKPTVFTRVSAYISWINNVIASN
Assay: Inhibitory activity toward porcine pancreatic elastase, fluorogenic substrate, microplate reader
Type: biochemical
pIC50: −log10 of the molar value.

{"compound": "CSc1ccc(OP(=O)(Oc2ccc(SC)cc2)C(C)NC(=O)C2CCCN2C(=O)C(NC(=O)CCCCC2SCC3NC(=O)NC32)C(C)C)cc1 (stereo not drawn)", "modifier": "=", "pIC50": 6.87}
{"compound": "COC(=O)c1ccc(OP(=O)(Oc2ccc(C(=O)OC)cc2)C(CC(C)C)NC(=O)C2CCCN2C(=O)C(NC(=O)CCCCC2SCC3NC(=O)NC32)C(C)C)cc1 (stereo not drawn)", "modifier": "<", "pIC50": 5.30}
{"compound": "COc1ccc(OP(=O)(Oc2ccc(OC)cc2)C(CC(C)C)NC(=O)C2CCCN2C(=O)C(NC(=O)CCCCC2SCC3NC(=O)NC32)C(C)C)cc1 (stereo not drawn)", "modifier": "=", "pIC50": 5.30}
{"compound": "CCC(NC(=O)C1CCCN1C(=O)C(NC(=O)CCCCC1SCC2NC(=O)NC21)C(C)C)P(=O)(Oc1ccc(SC)cc1)Oc1ccc(SC)cc1 (stereo not drawn)", "modifier": "=", "pIC50": 7.63}
{"compound": "CSc1ccc(OP(=O)(Oc2ccc(SC)cc2)C(CC(C)C)NC(=O)C2CCCN2C(=O)C(NC(=O)CCCCC2SCC3NC(=O)NC32)C(C)C)cc1 (stereo not drawn)", "modifier": "=", "pIC50": 6.54}
{"compound": "CC(C)C(NC(=O)CCCCC1SCC2NC(=O)NC21)C(=O)N1CCCC1C(=O)NC(C(C)C)P(=O)(Oc1ccccc1)Oc1ccccc1 (stereo not drawn)", "modifier": "=", "pIC50": 6.61}
